These data points were gathered from patent US20040029860A1.

Test system: mouse-selected embryo, neuronal culture
EXPERIMENTAL_DETAILS: primary tissue culture, neuronal
Assay type: cell-based
EXPERIMENTAL_CONDITIONS: data not shown
MEASUREMENT_KIND: pIC50
// pIC50 here means minus log10 of the molar concentration (mol/L)

Give the reported pIC50 for OCCN1CCN(CCCN2c3ccccc3Sc3ccc(Cl)cc32)CC1 (system: mouse-selected embryo, neuronal culture).
4.22

---

Test system: human neuroblastoma (SK-N-SH)
EXPERIMENTAL_DETAILS: cell viability (neutral red, Almar Blue, Hoechst dye), neuroblastoma SK-N-SH
Format: cell-based
EXPERIMENTAL_CONDITIONS: Homo sapiens, SK-N-SH; Table 1A
MEASUREMENT_KIND: pIC50
// pIC50 here means minus log10 of the molar concentration (mol/L)

Look at this compound and give its reported pIC50. CN(C)CCCN1c2ccccc2Sc2ccc(Cl)cc21
4.00

Look at this compound and give its reported pIC50. OCCN1CCN(CCCN2c3ccccc3Sc3ccc(Cl)cc32)CC1
4.68

---

Listing: survival rate during four weeks of treatment of selected compounds
System: mouse Lewis lung carcinoma (3LL)
EXPERIMENTAL_DETAILS: in vivo effect on Lewis lung carcinoma (3LL) in mice
EXPERIMENTAL_CONDITIONS: 3LL inoculated C57 mice, i.p. daily; thioridazine 15 mg/kg, others 30 mg/kg

In the examples that follow, each entry is paired with its recorded survival rate during four weeks of treatment.
[
  {
    "COMPOUND": "CSc1ccc2c(c1)N(CCC1CCCCN1C)c1ccccc1S2 (stereo not shown) [Thioridazine]",
    "REPORTED_MEASUREMENT": "7/7"
  },
  {
    "COMPOUND": "CNCCC(Oc1ccc(C(F)(F)F)cc1)c1ccccc1 (stereo not shown) [Fluoxetine]",
    "REPORTED_MEASUREMENT": "5/7"
  },
  {
    "COMPOUND": "CN(C)CCCN1c2ccccc2CCc2ccc(Cl)cc21 [Clomipramine]",
    "REPORTED_MEASUREMENT": "7/7"
  }
]

Kindly consider the entry below.
Look at this compound and give its reported survival rate during four weeks of treatment. Fc1ccc([C@@H]2CCNC[C@H]2COc2ccc3c(c2)OCO3)cc1 [Paroxetine]
5/6

---

System: different cell-lines
EXPERIMENTAL_DETAILS: mean IC50 over cell lines and therapeutic index
EXPERIMENTAL_CONDITIONS: read-out: IC50 Mean ± SD; Table 1A, mean over the cell lines
MEASUREMENT_KIND: pIC50
// pIC50 here means minus log10 of the molar concentration (mol/L)

Look at this compound and give its reported pIC50. OCCN1CCN(CC/C=C2/c3ccccc3Sc3ccc(C(F)(F)F)cc32)CC1
4.74
